Biological target: VIM-1 (Pseudomonas aeruginosa (strain ATCC 15692 / DSM 22644 / CIP 104116 / JCM 14847 / LMG 12228 / 1C / PRS 101 / PAO1), UniProt A0A0F7KYQ8)
Assay: biochemical
Conditions: CCF2-FA substrate, 2 hours at 25° C
Listed molecules paired with reported log10 of IC50
Transform log10 | Measure IC50 | Unit nM

Study these solved cases before continuing.
>>> print(df.to_string())
                                   molecule  endpoint_label  readout_value
0  NCCS(=O)(=O)c1ccc(-c2cccc3c2nc(N)n3CC(F)(F)F)c(-c2nn[nH]n2)c1S(N)(=O)=O [Example 18]   log10 of IC50          -0.44
1  NCCS(=O)(=O)c1ccc(-c2cccc(NC(=O)CN)c2NC(=O)CN)c(-c2nn[nH]n2)c1S(N)(=O)=O [Example 338]   log10 of IC50           1.18

Input: Recorded log10 of IC50 for NC[C@@H](N)CS(=O)(=O)c1ccc(-c2cccc3[nH]c(N)nc23)c(-c2nn[nH]n2)c1S(N)(=O)=O [Example 360] , please?
Output: -0.54

Input: Recorded log10 of IC50 for NS(=O)(=O)c1c(S(=O)(=O)CC2CNC2)ccc([C@H]2CC[C@H](N)CC2)c1-c1nnn[nH]1 [Example 204] , please?
Output: 0.02

Input: Recorded log10 of IC50 for NC[C@@H](O)CS(=O)(=O)c1ccc(-c2cccc3sc(N)nc23)c(-c2nn[nH]n2)c1S(N)(=O)=O [Example 352] , please?
Output: -0.59

Input: Recorded log10 of IC50 for Nc1ccc(-c2ccc(S(=O)(=O)C3CCNCC3)c(S(N)(=O)=O)c2-c2nn[nH]n2)cn1 [Example 24] , please?
Output: -0.66

Input: Recorded log10 of IC50 for Nc1nc2c(-c3ccc(S(=O)(=O)[C@H]4CCNC4)c(S(N)(=O)=O)c3-c3nn[nH]n3)cccc2o1 [Example 190] , please?
Output: -0.77
